Tested on: rodent lifetime carcinogenesis bioassay, tumor incidence TD50
Assay: carcinogenic potency in animals, long-term in vivo studies, CPDB compilation (AID 1745844)
Details: rat; strain Fischer 344; males; in drinking water; site: kidney; lesion: adenocarcinoma; dosed 110 weeks; study length 111 weeks

item smiles: [O-][Br+2]([O-])O
TD50 / mg/kg/day: 12.6

====

Tested on: rodent lifetime carcinogenesis bioassay, tumor incidence TD50
Test: carcinogenic potency in animals, long-term in vivo studies, CPDB compilation (AID 1745844)
Conditions: rat; strain Fischer 344; males; by gavage; site: kidney; lesion: adenoma + tubule adenoma + tubule carcinoma; dosed 101 weeks; study length 104 weeks

item smiles: O=c1ccc2ccccc2o1
TD50: 13.9 mg/kg/day

====

Tested on: rodent lifetime carcinogenesis bioassay, tumor incidence TD50
Experiment: carcinogenic potency in animals, long-term in vivo studies, CPDB compilation (AID 1745844)
Conditions: rat; strain F344/DuCrj; females; in drinking water; site: adrenal medulla; lesion: pheochromocytoma; dosed 104 weeks; study length 108 weeks
measured endpoint: TD50

item smiles: CC(=O)OC/C=C(C)/C=C/C=C(C)/C=C/C1=C(C)CCCC1(C)C
test target: rodent lifetime carcinogenesis bioassay, tumor incidence TD50
measured endpoint: TD50
observed: 227 mg/kg/day

====

Tested on: rodent lifetime carcinogenesis bioassay, tumor incidence TD50
Experiment: carcinogenic potency in animals, long-term in vivo studies, CPDB compilation (AID 1745844)
Conditions: hamster; strain Syrian Golden; males; in drinking water; site: lung; lesion: adenoma; dosed 103 weeks; study length 103 weeks

item smiles: CCOC(N)=O
TD50: 927 mg/kg/day

====

System: rodent lifetime carcinogenesis bioassay, tumor incidence TD50
Test: carcinogenic potency in animals, long-term in vivo studies, CPDB compilation (AID 1745844)
Conditions: mouse; strain Charles River CD1; females; by gavage; site: vagina; lesion: several types; types named in the paper; dosed 95 weeks; study length 95 weeks

item smiles: Cc1cn([C@H]2C[C@H](N=[N+]=[N-])[C@@H](CO)O2)c(=O)[nH]c1=O
TD50: 508 mg/kg/day

====

System: rodent lifetime carcinogenesis bioassay, tumor incidence TD50
Test: carcinogenic potency in animals, long-term in vivo studies, CPDB compilation (AID 1745844)
Conditions: mouse; strain B6C3F1; males; inhaled; site: Harderian gland; lesion: adenoma + adenoma, bilateral; dosed 13 weeks; study length 104 weeks

item smiles: C=CC=C
reading unit: mg/kg/day
TD50: 14.9

====

Tested on: rodent lifetime carcinogenesis bioassay, tumor incidence TD50
Assay: carcinogenic potency in animals, long-term in vivo studies, CPDB compilation (AID 1745844)
Details: rat; strain Wistar/LAC-P; females; in feed; site: liver; lesion: hepatocellular carcinoma; dosed 49 weeks; study length 49 weeks
measured endpoint: TD50

item smiles: CC/C(=C(\c1ccccc1)c1ccc(OCCN(C)C)cc1)c1ccccc1
observed: 1.36 mg/kg/day

====

Tested on: rodent lifetime carcinogenesis bioassay, tumor incidence TD50
Assay: carcinogenic potency in animals, long-term in vivo studies, CPDB compilation (AID 1745844)
Details: rat; strain Sprague-Dawley; males; by gavage; site: Zymbal's gland; lesion: carcinoma; dosed 104 weeks; study length 123 weeks

item smiles: Cc1ccc(C)c(C)c1
test target: rodent lifetime carcinogenesis bioassay, tumor incidence TD50
TD50, mg/kg/day: 18000

====

Tested on: rodent lifetime carcinogenesis bioassay, tumor incidence TD50
Experiment: carcinogenic potency in animals, long-term in vivo studies, CPDB compilation (AID 1745844)
Conditions: rat; strain Fischer 344; males; in drinking water; site: preputial gland; lesion: adenoma + adenoma, bilateral + carcinoma + carcinoma, bilateral; dosed 97 weeks; study length 97 weeks
measured endpoint: TD50

item smiles: COc1cc(-c2ccc(N=Nc3c(S(=O)(=O)O)cc4cc(S(=O)(=O)O)cc(N)c4c3O)c(OC)c2)ccc1N=Nc1c(S(=O)(=O)O)cc2cc(S(=O)(=O)O)cc(N)c2c1O
observed: 55.3 mg/kg/day

From: PubChem BioAssay AID1745844
